Provide the reported z-score of each item.
Experiment: inhibitors of hydroxyurea-induced Chk1 phosphorylation, primary screen, imaging, HeLa, phospho-Chk1 nuclear intensity (AID 1187); further: test concentration not given here
Conditions: hydroxyurea-induced phospho-Chk1 immunofluorescence imaging, higher = more signal
Enter a number only.

Quick one: give measured z-score for [N-]=[N+]=NCc1ccccc1C[C@]1(C(=O)O)N=C(c2ccc(OCCCO)cc2)O[C@H]1c1ccccc1
0.0605

Quick one: give measured z-score for Cc1ccc(S[C@]2(C(=O)O)CC(=O)N(C3Cc4ccccc4C3)[C@@H]2c2ccc(CO)cc2I)cc1
0.584

Quick one: give measured z-score for CC=CC(O)C1C=CC2C(=O)N(c3ccccc3)C(=O)C2N1Nc1ccc(C(C)C)cc1 (stereo not given)
0.538

Quick one: give measured z-score for O=C1C2C=CC(C(O)c3ccc(F)cc3)N(Nc3ccccc3)C2C(=O)N1c1ccccc1 (stereo not given)
-0.391

Quick one: give measured z-score for CCN(CC)c1ccc(N2CC=CC34O[C@@H]5/C=C\CCCOC(=O)C5[C@H]3C(=O)N(C(CO)C(C)C)[C@@H]4C2=O)cc1 (stereo not given in full)
-0.0477

----------
Test: small-molecule binders of probe aLefty1, primary screen, biochemical, small-molecule microarray, 635/667 nm fluorescence (AID 1153);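 further: score merges spot fluorescence with signal-to-noise ratio from the scanned slide images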
Details: higher = more signal
REPORTED PROPERTY: composite z-score
Enter a number only.

Quick one: give measured composite z-score for O=C1C2C=CC(C(O)c3ccc(B(O)O)cc3)N(Nc3ccccc3)C2C(=O)N1c1ccccc1 (centres undefined)
0.0315

Quick one: give measured composite z-score for C=C[C@H](COC(C)=O)N(Cc1ccc(OC(C)=O)c(OC)c1)S(=O)(=O)c1ccc(Br)cc1
0.19

Quick one: give measured composite z-score for C=CC[C@@]1(C(=O)NCC(O)CO)N=C(c2ccc(OCCCO)cc2)O[C@@H]1c1ccccc1N=[N+]=[N-] (some centres undefined)
0.18

Quick one: give measured composite z-score for COCCOC(=O)N1C(=O)[C@@]2(c3cc(C#CCCO)ccc31)[C@H](c1ccc(O)cc1)N1[C@H](c3ccccc3)[C@H](c3ccccc3)OC(=O)[C@H]1[C@@H]2C(N)=O
0.501

----------
System: wheat germ agglutinin (Triticum aestivum), Alexa647-labelled
Assay: wheat germ agglutinin binders on compound microarrays, profiling panel, artefact control for SMM control-protein annotation, biochemical, small-molecule microarray, 635/667 nm fluorescence (AID 1140);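 further: score merges 667 nm feature emission with signal to noise over triplicate slides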
Details: WGA-A647 binding, 635 nm fluorescence, higher = more signal
REPORTED PROPERTY: composite z-score
Enter a number only.

// fetch composite z-score; item: CCCCC=C[C@@H](NC(=O)c1ccc(C(=O)OC)cc1)c1ccccc1 ; system: wheat germ agglutinin (Triticum aestivum), Alexa647-labelled
0.658

// fetch composite z-score; item: COc1ccc(CCNC(=O)[C@@H]2c3ccccc3C(=O)N(Cc3ccc(OC(F)(F)F)cc3)[C@H]2c2ccc(CO)cc2)cc1 ; system: wheat germ agglutinin (Triticum aestivum), Alexa647-labelled
0.213

// fetch composite z-score; item: CC(C)C[C@@H]1NC(=O)[C@H]2C[C@@H](C(=O)NCCCCCNC(=O)CS)[C@@H](c3cccc(OCCO)c3)N2C1=O ; system: wheat germ agglutinin (Triticum aestivum), Alexa647-labelled
0.195

// fetch composite z-score; item: Cc1cc(C)cc(N2C(=O)CS(=O)(=O)C2c2cccc([N+](=O)[O-])c2)c1 (stereo not drawn) ; system: wheat germ agglutinin (Triticum aestivum), Alexa647-labelled
0.841

// fetch composite z-score; item: O=C1C[C@@](C(=O)NC2CC2)(c2ccc([N+](=O)[O-])cc2)[C@@H](c2ccc(CO)cc2)N1CC12CC3CC(CC(C3)C1)C2 ; system: wheat germ agglutinin (Triticum aestivum), Alexa647-labelled
0.553

// fetch composite z-score; item: CCOC(=O)C[C@H]1[C@H](OC(=O)c2ccccc2-c2ccccc2)[C@@H](NC(=O)Cc2ccc(OC)cc2)c2cc(OCCCO)ccc2N1C(=O)c1ccccc1 ; system: wheat germ agglutinin (Triticum aestivum), Alexa647-labelled
-0.0397

// fetch composite z-score; item: CCCCC=C[C@@H](NC(=O)c1ccco1)c1ccccc1 ; system: wheat germ agglutinin (Triticum aestivum), Alexa647-labelled
0.653

// fetch composite z-score; item: C=CC[C@@H](OC(=O)Nc1ccc(OC)cc1)c1ccc(O)c2ccccc12 ; system: wheat germ agglutinin (Triticum aestivum), Alexa647-labelled
0.542
